TARGET OR TEST SYSTEM: NRAS G12C (Homo sapiens, UniProt P01111+P62937, G12C)
Construct: His6
Sequence (P01111 whole entry G12C): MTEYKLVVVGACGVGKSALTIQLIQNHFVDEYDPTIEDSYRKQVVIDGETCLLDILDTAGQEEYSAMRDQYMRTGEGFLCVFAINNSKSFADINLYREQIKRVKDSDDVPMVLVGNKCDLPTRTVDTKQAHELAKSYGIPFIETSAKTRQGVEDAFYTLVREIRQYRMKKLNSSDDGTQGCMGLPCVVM
Sequence (P62937 whole entry): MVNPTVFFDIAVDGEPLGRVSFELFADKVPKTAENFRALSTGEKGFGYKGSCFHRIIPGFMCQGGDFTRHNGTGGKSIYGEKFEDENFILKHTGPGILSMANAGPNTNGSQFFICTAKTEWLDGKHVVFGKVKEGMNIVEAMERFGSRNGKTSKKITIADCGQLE
ASSAY INFO: Ras-Raf disruption/FRET/MOA assay, NRAS G12C
Type: biochemical
CONDITION DESCRIPTION: NRAS G12C FRET data IC50, NRAS G12C
Description: Disruption of B-Raf Ras-Binding Domain (BRAF^RBD) Interaction with K-Ras by Compounds of the Invention (Also Called a FRET Assay or an MOA Assay) Note—The following protocol describes a procedure for monitoring disruption of K-Ras G12C (GMP-PNP) binding to BRAF^RBD by a compound of the invention. This protocol may also be executed substituting other Ras proteins or nucleotides, such as K-Ras G12D and K-Ras G13D. […]
So I've got a bunch of compounds here, and I need their IC50 values.

Here is how some compounds turned out for IC50.
Exam item: What IC50 value was documented for this compound, CCn1c(-c2cnccc2COC)c2c3cc(ccc31)-c1cc(O)cc(c1)C[C@H](NC(=O)[C@H](C(C)C)N(C)C(=O)CN(C)C(=O)[C@H]1CN1)C(=O)N1CCC[C@H](N1)C(=O)OCC(C)(C)C2 [Example 7] ?
Marked response: < 10 nM

Exam item: For CCn1c(-c2cnccc2COC)c2c3cc(ccc31)-c1cc(O)cc(c1)C[C@H](NC(=O)[C@H](C(C)C)N(C)C(=O)CN(C)C(=O)[C@@H]1N[C@@H]1c1ccccc1)C(=O)N1CCC[C@H](N1)C(=O)OCC(C)(C)C2 [Compound 110] then?
Marked response: 10 to 100 nM

Exam item: Would you kindly repeat that for CCn1c(-c2cnccc2COC)c2c3cc(ccc31)-c1cc(O)cc(c1)C[C@H](NC(=O)[C@H](C(C)C)N(C)C(=O)CN(C)C(=O)[C@H]1N[C@H]1c1ccccc1)C(=O)N1CCC[C@H](N1)C(=O)OCC(C)(C)C2 [Compound 116] ?
Marked response: 100 to 1000 nM

Now let's try a different one.
Exam item: Quick one: IC50 of CCn1c(-c2cnccc2COC)c2c3cc(ccc31)-c1cc(O)cc(c1)C[C@H](NC(=O)[C@H](C(C)C)N(C)C(=O)CN(C)C(=O)C1CN1)C(=O)N1CCC[C@H](N1)C(=O)OCC(C)(C)C2 (stereo partly shown) [Compound 33] ?
Marked response: 10 to 100 nM

Hello, the source for this data is patent US11739074B2, in case you need it.
